Target Under Test: T1, cynomolgus monkey BCMA (cynomolgus monkey, UniProt A0A2K5UD97 1-53)
T1 construct: Soluble analyte in SPR; construct not described; also called cyBCMA; Cyno BCMA
T1 sequence (A0A2K5UD97 entry or part of it): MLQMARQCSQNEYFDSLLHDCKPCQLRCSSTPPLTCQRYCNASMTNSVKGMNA
Assay Details: SPR, IgG immobilised, 25 C

{"Binder": "L1.GDF/L3.NY/H3.AP (antibody, V domains shown, IgG) VH: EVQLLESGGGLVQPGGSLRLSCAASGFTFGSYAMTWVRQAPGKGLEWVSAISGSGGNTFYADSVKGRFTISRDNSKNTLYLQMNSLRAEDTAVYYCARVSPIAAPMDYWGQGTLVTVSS VL: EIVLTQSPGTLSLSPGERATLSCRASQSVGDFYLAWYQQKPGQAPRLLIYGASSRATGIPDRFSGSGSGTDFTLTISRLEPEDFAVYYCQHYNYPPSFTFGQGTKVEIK", "koff": "0.00702 s⁻¹"}
{"Binder": "L1.GDF/L3.PY/H3.AQ (antibody, V domains shown, IgG) VH: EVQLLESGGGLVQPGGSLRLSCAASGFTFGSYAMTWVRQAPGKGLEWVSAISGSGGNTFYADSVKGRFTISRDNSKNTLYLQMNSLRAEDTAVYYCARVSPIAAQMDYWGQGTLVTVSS VL: EIVLTQSPGTLSLSPGERATLSCRASQSVGDFYLAWYQQKPGQAPRLLIYGASSRATGIPDRFSGSGSGTDFTLTISRLEPEDFAVYYCQHYPYPPSFTFGQGTKVEIK", "koff": "0.0166 s⁻¹"}
{"Binder": "L1.GDF/L3.KW/H3.AL (antibody, V domains shown, IgG) VH: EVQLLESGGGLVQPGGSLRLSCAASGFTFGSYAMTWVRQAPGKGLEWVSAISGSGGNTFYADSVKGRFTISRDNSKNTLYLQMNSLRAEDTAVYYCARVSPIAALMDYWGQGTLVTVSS VL: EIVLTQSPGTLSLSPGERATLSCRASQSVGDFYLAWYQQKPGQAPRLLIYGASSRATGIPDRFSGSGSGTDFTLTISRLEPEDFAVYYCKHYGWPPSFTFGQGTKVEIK", "koff": "0.018 s⁻¹"}

Where do the numbers come from? From patent US20160297884A1.
